- Tested on: MCF7
- procedure-text: cells
- Assay type: functional, cell-based
- test-settings: Homo sapiens
measured-attribute: IC50 (nM)
Your answer should be a plain number; it is taken to be in nM.

I'd like to know its IC50. The compound in question is `COc1cc2c(cc1OS(N)(=O)=O)CC[C@@H]1[C@@H]2CC[C@]2(C)[C@@H](CC#N)CC[C@@H]12`
70

---

- procedure-text: in vivo
- test-settings: MF1, mouse
measured-attribute: selectivity ratio
Quick one: just the number, no unit, thanks!

Item `COc1cc2c(cc1OS(N)(=O)=O)CC[C@@H]1[C@@H]2CC[C@]2(C)[C@@H](OS(N)(=O)=O)CC[C@@H]12` has what recorded selectivity ratio?
4

---

- procedure-text: in vivo
- test-settings: MF1, mouse
measured-attribute: selectivity ratio

Would you kindly share the measured selectivity ratio for `COc1cc2c(cc1OS(N)(=O)=O)CC[C@@H]1[C@@H]2CC[C@]2(C)[C@@H](OS(N)(=O)=O)CC[C@@H]12` ?
3

---

- tgt: Steryl-sulfatase (Homo sapiens)
- Sequence (P08842 whole entry): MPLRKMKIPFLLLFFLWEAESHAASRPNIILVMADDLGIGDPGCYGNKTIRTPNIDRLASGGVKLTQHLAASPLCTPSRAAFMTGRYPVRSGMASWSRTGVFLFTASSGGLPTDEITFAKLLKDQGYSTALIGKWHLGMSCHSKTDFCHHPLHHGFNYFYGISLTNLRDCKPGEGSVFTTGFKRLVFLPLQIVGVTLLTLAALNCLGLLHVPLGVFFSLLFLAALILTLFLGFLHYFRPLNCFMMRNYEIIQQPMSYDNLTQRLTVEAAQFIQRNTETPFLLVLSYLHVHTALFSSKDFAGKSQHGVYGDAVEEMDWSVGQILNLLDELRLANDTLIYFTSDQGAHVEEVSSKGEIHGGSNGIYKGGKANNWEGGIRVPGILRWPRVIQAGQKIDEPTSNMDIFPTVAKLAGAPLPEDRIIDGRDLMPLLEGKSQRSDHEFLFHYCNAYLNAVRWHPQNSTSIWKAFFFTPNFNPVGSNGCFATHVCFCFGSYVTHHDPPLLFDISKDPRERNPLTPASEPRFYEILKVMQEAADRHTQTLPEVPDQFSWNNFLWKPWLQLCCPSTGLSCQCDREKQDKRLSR
- Format: microsomes, Placenta, Microsome
measured-attribute: pIC50
// pIC50 is dimensionless: -log10 of concentration (M)

Look over these answered cases.
In [3]: df
Out[3]:
                               entry_smiles  measured_attribute  experimental_value
0  CCCCCCN1C(=O)C[C@H]2[C@@H]3CCc4cc(OS(N)(=O)=O)ccc4[C@H]3CC[C@]2(C)C1=O               pIC50                6.54
1  CCN1C(=O)C[C@H]2[C@@H]3CCc4cc(OS(N)(=O)=O)ccc4[C@H]3CC[C@]2(C)C1=O               pIC50                7.28
2  CC(C)(C)c1ccc(CN2C(=O)C[C@H]3[C@@H]4CCc5cc(OS(N)(=O)=O)ccc5[C@H]4CC[C@]3(C)C2=O)cc1               pIC50                7.64
3  CCCN1C(=O)C[C@H]2[C@@H]3CCc4cc(OS(N)(=O)=O)ccc4[C@H]3CC[C@]2(C)C1=O               pIC50                9.00
4  C[C@]12CC[C@@H]3c4ccc(OS(N)(=O)=O)cc4CC[C@H]3[C@@H]1CC(=O)N(Cc1ccccc1)C2=O               pIC50                8.52

State its pIC50 on Steryl-sulfatase (Homo sapiens): `C[C@]12CC[C@@H]3c4ccc(OS(N)(=O)=O)cc4CC[C@H]3[C@@H]1CC(=O)N(Cc1cccnc1)C2=O`
9.00

GET /values?readout=pIC50&system=Steryl-sulfatase (Homo sapiens)&item= `C[C@]12CC[C@@H]3c4ccc(OS(N)(=O)=O)cc4CC[C@H]3[C@@H]1CC(=O)NC2=O`
7.70

What pIC50 appears in the records for this molecule with Steryl-sulfatase (Homo sapiens)? `CN1C(=O)C[C@H]2[C@@H]3CCc4cc(OS(N)(=O)=O)ccc4[C@H]3CC[C@]2(C)C1=O`
7.92

GET /values?readout=pIC50&system=Steryl-sulfatase (Homo sapiens)&item= `CCCCN1C(=O)C[C@H]2[C@@H]3CCc4cc(OS(N)(=O)=O)ccc4[C@H]3CC[C@]2(C)C1=O`
6.42

Value wanted: pIC50 (Steryl-sulfatase (Homo sapiens)) of entry `C=CCN1C(=O)C[C@H]2[C@@H]3CCc4cc(OS(N)(=O)=O)ccc4[C@H]3CC[C@]2(C)C1=O`
7.12
